Source: the supplement of paper PMC10724198

# Test system: Saccharomyces cerevisiae;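 further: PSI is a weighted mean of each variant's read distribution over the sorted stability bins, computed only for variants having over 10 reads in total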
# PROTOCOL DESCRIPTION: protein stability index of tFT-peptide fusion in deletion strain of DAS1 (PSI (0-1 scale)); higher = more stable (slower turnover)
READOUT LABEL: protein stability index
Number, no unit, nothing else.

Example results:
{"SEQ TEXT": "ARWRVGLERGAS", "protein stability index": 0.7}
{"SEQ TEXT": "RLIQPLPVQFLQ", "protein stability index": 0.647}
{"SEQ TEXT": "CCSCGYKFRTNN", "protein stability index": 0.681}

The sequence listed as ARWRVGLWRGPS shows protein stability index equal to 0.69

// recorded protein stability index for CTSCGYKFNTNN : 0.722

response.value for PDKRNHWIKLLN (field: protein stability index) = 0.567

Data point: VRGAVGGWRLVG ; protein stability index = 0.681

Form field protein stability index, entry LRILRQKMNHQN : 0.666

Kindly note the recorded protein stability index for FRMRWTFRYWVN , which is 0.584

For reference, reported protein stability index for PDKRNHLIPLLN stands at 0.585

// protein stability index lookup, sequence = CTSCGYKFFTNN , result: 0.727

Reported protein stability index ( KKHKKGQKPKIN ) = 0.626

The reported value for FSMRWTFRRWVN in terms of protein stability index is 0.623

Record summary for RLIQPLPVQFFN : reported protein stability index = 0.563

Kindly note the recorded protein stability index for ARWMVGLWRGAS , which is 0.709

LVVYLSNVACIN has a reported protein stability index of 0.5

Form: sequence = PDKRNHLIKRLN ; protein stability index = 0.602

Measured protein stability index, FSMSWTFRYWVN : 0.493
